- Tested on: Phytophthora infestans
- testSummary: whole plant or invertebrate
- Type: in vivo
- runConditions: Phytophthora infestans, in Solanum lycopersicum, 96 h, read-out: % Control TLB
resultType: pest or weed control at 100 ppm (%)
Give the value, in units of %, as a plain number.

## Task Determine from records and report pest or weed control at 100 ppm for CCCCCCCCNC(=O)/C=C\SC(=O)N1CCCC1
## Result 80

## Task Determine from records and report pest or weed control at 100 ppm for CCCCCCCCNC(=O)/C=C\SC(=O)c1ccc([N+](=O)[O-])o1
## Result 90

## Task Determine from records and report pest or weed control at 100 ppm for CCCCCCCCNC(=O)/C=C\SC(=O)c1ccc(OC)cc1
## Result 90

## Task Determine from records and report pest or weed control at 100 ppm for CCCCCCCCNC(=O)/C=C\SCC(=O)OCC
## Result 80

## Task Determine from records and report pest or weed control at 100 ppm for CCCCCCCCNC(=O)/C=C\SC(=O)c1ccc(F)cc1
## Result 90

## Task Determine from records and report pest or weed control at 100 ppm for CCCCCCCCNC(=O)/C=C\SC(=O)C1CCCCC1
## Result 90

## Task Determine from records and report pest or weed control at 100 ppm for CCCCCCCCNC(=O)/C=C\SC(=O)c1cccc(OC)c1
## Result 80

## Task Determine from records and report pest or weed control at 100 ppm for CCCCCCCCNC(=O)/C=C\SC(=O)CCCCl
## Result 90

## Task Determine from records and report pest or weed control at 100 ppm for CCCCCCCCNC(=O)/C=C\SC/C=C/c1ccccc1
## Result 80

## Task Determine from records and report pest or weed control at 100 ppm for CCCCCCCCNC(=O)/C=C\SCc1ccc(C(F)(F)F)cc1
## Result 80

----------
Parameter pest or weed control at 100 ppm: see the listing below.
- System: Phytophthora infestans
- testSummary: whole plant or invertebrate
- Type: in vivo
- runConditions: Phytophthora infestans, in Solanum lycopersicum, 96 h, read-out: % Control TLB
Give the value, in units of %, as a plain number.

Some entries whose results are on file:
CCCCCCCCNC(=O)/C=C\SC(=O)C(=O)OC; 80
CCCCCCCCNC(=O)/C=C\SC(=O)CCl; 80
CCCCCCCCNC(=O)/C=C\SC(=O)/C=C/c1ccccc1; 90

Kindly consider the entry below.
## Task Determine from records and report pest or weed control at 100 ppm for CCCCCCCCNC(=O)/C=C\SC(=O)COc1ccccc1
## Result 90

----------
Parameter pest or weed control at 100 ppm: see the listing below.
- System: Puccinia graminis (f. sp. tritici Race 15B-2)
- testSummary: whole plant or invertebrate
- Format: in vivo
- runConditions: Puccinia graminis, 336 h, read-out: % Control WSR
Give the value, in units of %, as a plain number.

CCCCCCCCNC(=O)/C=C\SC(=O)/C(=C/c1ccccc1)c1ccccc1; 50
CCCCCC#CC(=O)S/C=C\C(=O)NCCCCCCCC; 0
CC(C)(C)CC(C)(C)NC(=O)/C=C\SC(=O)c1ccccc1; 50
CCCCCCCCNC(=O)/C=C\SC(=O)/C=C/c1ccc([N+](=O)[O-])cc1; 0
CCCCCCCCNC(=O)/C=C\SC(=O)CC=Cc1ccccc1; 0

## Task Determine from records and report pest or weed control at 100 ppm for CCCCCCCCNC(=O)/C=C\SC(=O)C(C)(C)C
## Result 90

## Task Determine from records and report pest or weed control at 100 ppm for CCCCCCCCNC(=O)/C=C\SC(=O)COc1ccccc1
## Result 90

## Task Determine from records and report pest or weed control at 100 ppm for CCCCCCCCNC(=O)/C=C\SC(=O)C1=CC(=O)CC(C)(C)O1
## Result 80
